ASSAYED_TARGET: VIPR2 (Homo sapiens)
Sequence (P41587 24-438): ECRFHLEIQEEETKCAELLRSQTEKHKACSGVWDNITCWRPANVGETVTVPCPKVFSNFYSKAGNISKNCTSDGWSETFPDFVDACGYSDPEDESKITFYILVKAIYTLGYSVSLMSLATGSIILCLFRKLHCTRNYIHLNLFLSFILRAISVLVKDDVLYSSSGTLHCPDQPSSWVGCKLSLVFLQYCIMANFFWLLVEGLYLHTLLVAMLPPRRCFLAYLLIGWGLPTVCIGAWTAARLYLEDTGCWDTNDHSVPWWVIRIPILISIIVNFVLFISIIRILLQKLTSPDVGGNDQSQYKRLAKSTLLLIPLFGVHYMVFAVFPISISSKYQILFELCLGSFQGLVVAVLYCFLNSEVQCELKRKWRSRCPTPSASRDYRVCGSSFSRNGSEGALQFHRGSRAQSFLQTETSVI
MEASUREMENT_DESCRIPTION: Inhibition of VIP-induced cAMP elevation (% Activity cAMP)
Type: cell-based
Set-up: expressed in transfected cells; host or cells: HEK293 cells transfected with VIPR2 in pCDNA3.1 (as described)
DETAILS: 0.5 μM, Batch 1
MEASURED_QUANTITY: inhibition at 0.5 µM (%)

I. O=C(NC[C@@H](O)C[C@@H](Cc1ccccc1)C(=O)N[C@H]1c2ccccc2C[C@H]1O)c1ccccc1[N+](=O)[O-]
II. O=C(N[C@H]1c2ccccc2C[C@H]1O)[C@H](Cc1ccccc1)C[C@H](O)CNS(=O)(=O)c1ccc(C(F)(F)F)cc1
III. O=C(N[C@H]1c2ccccc2C[C@H]1O)[C@H](Cc1ccccc1)C[C@H](O)CNS(=O)(=O)c1ccccc1F
IV. Cc1ccc([N+](=O)[O-])cc1S(=O)(=O)NC[C@@H](O)C[C@@H](Cc1ccccc1)C(=O)N[C@H]1c2ccccc2C[C@H]1O
Ranking by inhibition at 0.5 µM (descending) is requested for the entries above. # list labels per requested ordering
II, III, I, IV

Hey, just so you know, these numbers are from patent US20150239831A1.
